Target: T1, CD40 (Ancell) (UniProt P25942 21-193)
T1 construct: also called CD40-Fc (Ancell #504-820); not shown: Fc part, not described
T1 sequence (P25942 21-193 limits assumed): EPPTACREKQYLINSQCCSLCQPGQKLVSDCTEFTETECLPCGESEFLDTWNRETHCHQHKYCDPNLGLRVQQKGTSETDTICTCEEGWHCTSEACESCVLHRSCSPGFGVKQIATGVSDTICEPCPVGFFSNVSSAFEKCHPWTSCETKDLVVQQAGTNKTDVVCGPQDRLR
Assay: ELISA
READOUT_TYPE: binding result

anti-OX40 antibody 1482/1483 (antibody, V domains shown, Tested as IgG) VH: EVQLLESGGGLVQPGGSLRLSCAASGFTFSSYAMSWVRQAPGKGLEWVSYISYYSGYTYYADSVKGRFTISRDNSKNTLYLQMNSLRAEDTAVYYCARGYGYLDYWGQGTLVTVSS VL: DIQMTQSPSSLSASVGDRVTITCRASQSISSYLNWYQQKPGKAPKLLIYAASSLQSGVPSRFSGSGSGTDFTLTISSLQPEDFATYYCQQYGSLLTFGQGTKLEIK : no binding
anti-OX40 antibody 1514/1515 (antibody, V domains shown, Tested as IgG) VH: EVQLLESGGGLVQPGGSLRLSCAASGFTFGYYYMSWVRQAPGKGLEWVSGISSYGSYTYYADSVKGRFTISRDNSKNTLYLQMNSLRAEDTAVYYCARSGYSNWANSFDYWGQGTLVTVSS VL: DIQMTQSPSSLSASVGDRVTITCRASQSISSYLNWYQQKPGKAPKLLIYAASSLQSGVPSRFSGSGSGTDFTLTISSLQPEDFATYYCQQGDYTLFTFGQGTKLEIK : no binding
anti-OX40 antibody 1166/1167 (antibody, V domains shown, Tested as IgG) VH: EVQLLESGGGLVQPGGSLRLSCAASGFTFGGYYMSWVRQAPGKGLEWVSAISGSGGSTYYADSVKGRFTISRDNSKNTLYLQMNSLRAEDTAVYYCARYDYASMDYWGQGTLVTVSS VL: DIQMTQSPSSLSASVGDRVTITCRASQSISSYLNWYQQKPGKAPKLLIYAASSLQSGVPSRFSGSGSGTDFTLTISSLQPEDFATYYCQQYYWYGLSTFGQGTKLEIK : no binding
